// values below are reported CL/F
- method-description: Clearance in BALB/c mouse at 5 mg/kg, po by LC/MS/MS analysis
- Type: ADME, organism-based
- Parameters: dose 5 mg/kg, route oral
- protocol-conditions: in vivo
property-name: CL/F (mL/min/kg)

molecule-smiles: Cc1ccc(S(C)(=O)=O)cc1C#Cc1cc(Cl)ccc1OCC(=O)O
result-value: 23.3
--
molecule-smiles: CC(C)S(=O)(=O)c1ccc(Cl)c(C#Cc2cc(Cl)ccc2OCC(=O)O)c1
result-value: 11.7
--
molecule-smiles: Cc1ccc(S(=O)(=O)N2CCOCC2)cc1C#Cc1cc(Cl)ccc1OCC(=O)O
result-value: 31.7
--
molecule-smiles: CCCS(=O)(=O)c1ccc(C)c(C#Cc2cc(Cl)ccc2OCC(=O)O)c1
result-value: 16.7
--
molecule-smiles: CS(=O)(=O)c1ccc(F)c(C#Cc2cc(Cl)ccc2OCC(=O)O)c1
result-value: 6.67
--
molecule-smiles: CC(C)c1ccc(S(C)(=O)=O)cc1C#Cc1cc(Cl)ccc1OCC(=O)O
result-value: 8.33
--
molecule-smiles: CC(C)S(=O)(=O)c1ccc(F)c(C#Cc2cc(Cl)ccc2OCC(=O)O)c1
result-value: 5.83
--
molecule-smiles: CN(C)S(=O)(=O)c1cncc(C#Cc2cc(Cl)ccc2OCC(=O)O)c1
result-value: 13.3
--
molecule-smiles: O=C(O)COc1ccc(Cl)cc1C#Cc1ccc(CO)cc1F
result-value: 35
--
molecule-smiles: CCCS(=O)(=O)c1ccc(C)c(C#Cc2cc(C#N)ccc2OCC(=O)O)c1
result-value: 18.3

###

- method-description: Kinetic solubility of the compound in 2% DMSO
- Assay type: physicochemical
- protocol-conditions: read-out: Kinetic_solubility

molecule-smiles: O=C(O)COc1ccc(Cl)cc1C#Cc1cccc(Cl)c1
solubility kinetic: > 200 µM

###

- method-description: Half life in Sprague-Dawley rat at 1 mg/kg, iv and 5 mg/kg, po by LC/MS/MS analysis
- Assay type: ADME, organism-based
- protocol-conditions: in vivo

molecule-smiles: CCCS(=O)(=O)c1cccc(C#Cc2cc(Cl)ccc2OCC(=O)O)c1
units: h
half-life: 4.4

###

// values below are reported pKi
- tested-on: Prostaglandin D2 receptor 2 (Homo sapiens, UniProt Q9Y5Y4)
- Sequence (Q9Y5Y4 whole entry): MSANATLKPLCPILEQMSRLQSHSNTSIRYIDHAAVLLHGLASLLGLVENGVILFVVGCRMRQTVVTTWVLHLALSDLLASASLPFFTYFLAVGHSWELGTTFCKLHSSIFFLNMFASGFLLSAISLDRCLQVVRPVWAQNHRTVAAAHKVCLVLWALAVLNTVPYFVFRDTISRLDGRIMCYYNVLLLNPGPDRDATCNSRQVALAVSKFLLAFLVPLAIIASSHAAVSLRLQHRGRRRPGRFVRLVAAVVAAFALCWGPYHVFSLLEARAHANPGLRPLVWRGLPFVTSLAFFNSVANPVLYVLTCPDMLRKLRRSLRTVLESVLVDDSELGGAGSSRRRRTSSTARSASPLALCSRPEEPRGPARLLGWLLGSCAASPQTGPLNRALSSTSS
- method-description: Displacement of [3H]PGD2 from human CRTH2 expressed in chinese hamster CHO cells by liquid scintillation counting
pKi: −log10 of the molar value.

molecule-smiles: O=C(O)COc1ccc(Cl)cc1C#Cc1ccc(CO)cc1F
pKi: 7.55
--
molecule-smiles: Cc1ncccc1C#Cc1cc(Cl)ccc1OCC(=O)O
pKi: 6.84
--
molecule-smiles: Cn1ccnc1C#Cc1cc(Cl)ccc1OCC(=O)O
pKi: 5.83
--
molecule-smiles: O=C(O)COc1ccc(Cl)cc1C#Cc1ccc2c(c1)S(=O)(=O)c1ccccc1-2
pKi: 7.92
--
molecule-smiles: CS(=O)(=O)c1ccc(Cl)c(C#Cc2cc(Cl)ccc2OCC(=O)O)c1
pKi: 8.46
--
molecule-smiles: CS(=O)(=O)Cc1cccc(C#Cc2cc(Cl)ccc2OCC(=O)O)c1
pKi: 7.32
--
molecule-smiles: CS(=O)(=O)Nc1cccc(C#Cc2cc(Cl)ccc2OCC(=O)O)c1
pKi: 7.27
--
molecule-smiles: Cc1ccc(S(=O)(=O)N(C)CCCN(C)C)cc1C#Cc1cc(Cl)ccc1OCC(=O)O
pKi: 6.54
--
molecule-smiles: CCCS(=O)(=O)c1ccc(Cl)c(C#Cc2cc(Cl)ccc2OCC(=O)O)c1
pKi: 8.68
--
molecule-smiles: CCN(CC)C(=O)c1ccc(C#Cc2cc(Cl)ccc2OCC(=O)O)cc1S(=O)(=O)C(C)C
pKi: 7.34
--
molecule-smiles: CCNS(=O)(=O)c1ccc(C)c(C#Cc2cc(Cl)ccc2OCC(=O)O)c1
pKi: 8.36
--
molecule-smiles: CCCS(=O)(=O)c1cccc(C#Cc2cc(-c3ccsc3)ccc2OCC(=O)O)c1
pKi: 7.74
--
molecule-smiles: CS(=O)(=O)c1ccc(C#Cc2cc(Cl)ccc2OCC(=O)O)cc1
pKi: 7.07
--
molecule-smiles: Cc1ccc(S(=O)(=O)N(C)CCN(C)C)cc1C#Cc1cc(Cl)ccc1OCC(=O)O
pKi: 6.43
--
molecule-smiles: CS(=O)(=O)c1cc(C#Cc2cc(Cl)ccc2OCC(=O)O)ccc1-c1cccc(Cl)c1
pKi: 7.80
--
molecule-smiles: CS(=O)(=O)c1cncc(C#Cc2cc(Cl)ccc2OCC(=O)O)c1
pKi: 7.22
--
molecule-smiles: Cc1ccc(S(=O)(=O)C(C)C)cc1C#Cc1cc(Cl)ccc1OCC(=O)O
pKi: 8.22
--
molecule-smiles: CC1(C)C(=O)c2ccc(C#Cc3cc(Cl)ccc3OCC(=O)O)cc2S1(=O)=O
pKi: 7.51
--
molecule-smiles: O=C(O)COc1ccc(Cl)cc1C#Cc1ccc2c(c1)S(=O)(=O)CC2
pKi: 7.64
--
molecule-smiles: Cc1ccc(S(=O)(=O)CC(C)C)cc1C#Cc1cc(Cl)ccc1OCC(=O)O
pKi: 8.52
--
molecule-smiles: CCCS(=O)(=O)c1cccc(C#Cc2c(Cl)cccc2OCC(=O)O)c1
pKi: 7.26

###

- method-description: Oral bioavailability in BALB/c mouse at 5 mg/kg by LC/MS/MS analysis
- Format: ADME, organism-based
- protocol-conditions: in vivo
// values below are reported bioavailability
property-name: bioavailability

molecule-smiles: CS(=O)(=O)c1ccc(F)c(C#Cc2cc(Cl)ccc2OCC(=O)O)c1
result-value: 24%
//
molecule-smiles: COCCNS(=O)(=O)c1ccc(C)c(C#Cc2cc(Cl)ccc2OCC(=O)O)c1
result-value: 33%
//
molecule-smiles: CS(=O)(=O)c1ccc(Cl)c(C#Cc2cc(Cl)ccc2OCC(=O)O)c1
result-value: 141%
//
molecule-smiles: Cc1ccc(S(C)(=O)=O)cc1C#Cc1cc(Cl)ccc1OCC(=O)O
result-value: 49%
//
molecule-smiles: CC(C)S(=O)(=O)c1ccc(F)c(C#Cc2cc(Cl)ccc2OCC(=O)O)c1
result-value: 130%
//
molecule-smiles: CCCS(=O)(=O)c1ccc(Cl)c(C#Cc2cc(Cl)ccc2OCC(=O)O)c1
result-value: 112%
//
molecule-smiles: O=C(O)COc1ccc(Cl)cc1C#Cc1ccc(CO)cc1F
result-value: 3%
//
molecule-smiles: CCCS(=O)(=O)c1ccc(C)c(C#Cc2cc(Cl)ccc2OCC(=O)O)c1
result-value: 80%
//
molecule-smiles: Cc1ccc(S(=O)(=O)N2CCOCC2)cc1C#Cc1cc(Cl)ccc1OCC(=O)O
result-value: 48%
//
molecule-smiles: CC(C)c1ccc(S(C)(=O)=O)cc1C#Cc1cc(Cl)ccc1OCC(=O)O
result-value: 29%
//
molecule-smiles: CC(C)c1ccc(S(C)(=O)=O)cc1C#Cc1cc(C#N)ccc1OCC(=O)O
result-value: 26%
//
molecule-smiles: CCCS(=O)(=O)c1ccc(C)c(C#Cc2cc(C#N)ccc2OCC(=O)O)c1
result-value: 24%

###

- tested-on: Prostaglandin D2 receptor 2 (Homo sapiens, UniProt Q9Y5Y4)
- method-description: Displacement of [3H]PGD2 from human CRTH2 expressed in chinese hamster CHO cells by liquid scintillation counting in the presence of 0.1% BSA
- Format: cell-based
pIC50: −log10 of the molar value.

molecule-smiles: O=C(O)COc1ccc(Cl)cc1C#Cc1cccc(Cl)c1
pIC50: 7.54

###

- tested-on: Prostaglandin D2 receptor 2 (Homo sapiens)
- method-description: Partial agonist activity at human CRTH2 expressed in chinese hamster CHO cells by cellular dielectric spectroscopy relative to PGD2
- Type: functional, cell-based

molecule-smiles: CCCS(=O)(=O)c1cccc(C#Cc2cc(C#N)ccc2OCC(=O)O)c1
Emax [%]: 30

molecule-smiles: CCCS(=O)(=O)c1cccc(C#Cc2cc(-c3ccccc3)ccc2OCC(=O)O)c1
Emax [%]: 68

molecule-smiles: O=C(O)COc1ccc(C(F)(F)F)cc1C#Cc1ccccc1Cl
Emax [%]: 60

molecule-smiles: CS(=O)(=O)c1cccc(C#Cc2cc(Cl)ccc2OCC(=O)O)c1
Emax [%]: 10

molecule-smiles: Cc1ccc(S(C)(=O)=O)cc1C#Cc1cc(Cl)ccc1OCC(=O)O
Emax [%]: 10

molecule-smiles: CS(=O)(=O)c1ccc(F)c(C#Cc2cc(Cl)ccc2OCC(=O)O)c1
Emax [%]: 10

FYI, the data here is from ChEMBL document CHEMBL1914440.
